Reference source: patent US20030181441A1

A set of molecules tested on MMP-13 (Homo sapiens, UniProt P45452), with measured pIC50:
Scale note: pIC50 = -log10(concentration in M).

What does the data say about its pIC50? Entry: CC1(C)[C@H](C(=O)NO)N(S(=O)(=O)c2ccc(OCc3ccc(F)cc3)cc2)CC[S+]1[O-] (some centres unmarked)
8.30

What does the data say about its pIC50? Entry: "CC(=O)N1CCN(S(=O)(=O)c2ccc(OCc3ccccc3C)cc2)[C@@H](C(=O)NO)[C@@H]1C"
8.52

What does the data say about its pIC50? Entry: "C[C@@H]1O[C@@H](CO)CN(S(=O)(=O)c2ccc(OCc3ccc(F)cc3)cc2)[C@H]1C(=O)NO"
9.00

What does the data say about its pIC50? Entry: "C[C@@H]1NCCN(S(=O)(=O)c2ccc(OCc3ccccc3)cc2)[C@H]1C(=O)NO"
8.10

What does the data say about its pIC50? Entry: "C[C@@H]1O[C@@H](C)CN(S(=O)(=O)c2ccc(OCc3ccncc3)cc2)[C@H]1C(=O)NO"
8.22
